Quick reference for Octet response among some binders
- SYSTEM_NAME: T1, FA peptide (Octet assay of PS557 variants)
- T1 construct: Peptide coated on the Octet sensor
- EXPERIMENT_NOTES: Octet (BLI), peptide on sensor, response after 200 s association
Give the value, in units of nm, as a plain number.

>>> test_value("PS852 (designed binder, Variant of PS557) MPTAASATESAIEDTPAPARPEVDGRTKPKHQPRYHVVLWDDDDHTYQYVVVMLRSLFGHPPERGYRLAKEMDTQGRVIVLTTTREHAELKRDQIHAFGYDRLLARSKGSMKASIEAEE")
0.102

// returns reported Octet response for input PS824 (designed binder, Variant of PS557) MPTAASATESAFEDTPAPARPEVDGRTKPKRQPRYHVVLWDDDDHTYQYVVVMLRSLFGHPPERGYRLAKEMDTQGRVIVLTTTREHAELKRDQIHAFGYDRLLARSKGSMKASIEAEE
0.673

Param item: PS833 (designed binder, Variant of PS557) MPTAASATESAIEDTPAPARPVVDGRTKPKRQPRYHVVLWDDDDHTYQYVVVMLQSLFGHPPERGYRLAKEMDTQGRVIVLTTTREHAELKRDQIHAFGYDRLLARSKGSMKASIEAEE
0.0509

Param item: PS557 (other, Natural ClpS parent protein; also called WT; wild-type protein) MPTAASATESAIEDTPAPARPEVDGRTKPKRQPRYHVVLWNDDDHTYQYVVVMLQSLFGHPPERGYRLAKEVDTQGRVIVLTTTREHAELKRDQIHAFGYDRLLARSKGSMKASIEAEE
0.0096

These data points were gathered from patent US20240272170A1.
